System: Plasmodium berghei
Test: Luciferase/luciferin-expressing antifolate-resistant parasites were used to infect a culture of HepG2 cells that were pre-incubated with compounds. Infected hepatocytes emit light due to the luciferase reaction. Assay results are presented as the percent inhibition of light emission compared to control. […]
Type: functional
Conditions: sporozoite, PBLUC_HILL_SLOPE 2.59, PBLUC_R_SQUARED 0.747, read-out: LUCIFERASE INFECTION ASSAY - IC50
reported endpoint: IC50

- CN(C)S(=O)(=O)c1cc(C(=O)Nc2nc(-c3ccccc3)cn2/N=C/c2ccccc2)ccc1Cl: 5.75 µM

* * *

Test system: Plasmodium berghei
Assay: Luciferase/luciferin-expressing antifolate-resistant parasites were used to infect a culture of HepG2 cells that were pre-incubated with compounds. Infected hepatocytes emit light due to the luciferase reaction. Assay results are presented as the percent inhibition of light emission compared to control. […]
Assay type: functional
Conditions: sporozoite, PBLUC_HILL_SLOPE 1.42, PBLUC_R_SQUARED 0.884, read-out: LUCIFERASE INFECTION ASSAY - IC50
reported endpoint: IC50

• CN1N=C2c3ccccc3CCC2C1c1ccc(F)cc1 (stereo unspecified) = 1200 nM

* * *

Test system: Plasmodium berghei
Experiment: Luciferase/luciferin-expressing antifolate-resistant parasites were used to infect a culture of HepG2 cells that were pre-incubated with compounds. Infected hepatocytes emit light due to the luciferase reaction. Assay results are presented as the percent inhibition of light emission compared to control. […]
Format: functional
Settings: sporozoite, HEPG2TOX_HILL_SLOPE 1.56, HEPG2TOX_R_SQUARED 0.963, PBLUC_HILL_SLOPE 1.41, PBLUC_R_SQUARED 0.827, read-out: LUCIFERASE INFECTION ASSAY - IC50
pIC50: −log10 of the molar value.
reported endpoint: pIC50

* Cn1c(Nc2ccccc2)nc2cnc(-c3cccc4ccccc34)cc21 | 6.01

* * *

Tested on: Plasmodium berghei
Test: Luciferase/luciferin-expressing antifolate-resistant parasites were used to infect a culture of HepG2 cells that were pre-incubated with compounds. Infected hepatocytes emit light due to the luciferase reaction. Assay results are presented as the percent inhibition of light emission compared to control. […]
Type: functional
Details: sporozoite, HEPG2TOX_HILL_SLOPE 0.737, HEPG2TOX_R_SQUARED 0.843, PBLUC_HILL_SLOPE 3.70, 1.65, PBLUC_R_SQUARED 0.424, 0.851, read-out: LUCIFERASE INFECTION ASSAY - IC50
reported endpoint: IC50 (µM)

• Cc1nn(Cc2ccccc2)c2sc(C(=O)Nc3nc4ccccc4[nH]3)cc12 = 0.229

* * *

Tested on: Plasmodium berghei
Experiment: Luciferase/luciferin-expressing antifolate-resistant parasites were used to infect a culture of HepG2 cells that were pre-incubated with compounds. Infected hepatocytes emit light due to the luciferase reaction. Assay results are presented as the percent inhibition of light emission compared to control. […]
Type: functional
Details: sporozoite, PBLUC_HILL_SLOPE 6.08, PBLUC_R_SQUARED 0.68, read-out: LUCIFERASE INFECTION ASSAY - IC50
reported endpoint: IC50 (µM)

- Cc1sc2nc(-c3cccnc3)nc(Nc3ccc(N(C)C)nc3)c2c1C: 3.9

* * *

Test system: Plasmodium berghei
Test: Luciferase/luciferin-expressing antifolate-resistant parasites were used to infect a culture of HepG2 cells that were pre-incubated with compounds. Infected hepatocytes emit light due to the luciferase reaction. Assay results are presented as the percent inhibition of light emission compared to control. […]
Type: functional
Details: sporozoite, PBLUC_HILL_SLOPE 16.6, PBLUC_R_SQUARED 0.382, read-out: LUCIFERASE INFECTION ASSAY - IC50
reported endpoint: IC50 (µM)

- Cc1ccc(Oc2ccc(NC(=O)CCc3cccnc3)cc2)cc1: 8.37

* * *

System: Plasmodium berghei
Experiment: Luciferase/luciferin-expressing antifolate-resistant parasites were used to infect a culture of HepG2 cells that were pre-incubated with compounds. Infected hepatocytes emit light due to the luciferase reaction. Assay results are presented as the percent inhibition of light emission compared to control. […]
Type: functional
Conditions: sporozoite, PBLUC_HILL_SLOPE 9.6, PBLUC_R_SQUARED 0.721, read-out: LUCIFERASE INFECTION ASSAY - IC50
pIC50: −log10 of the molar value.
reported endpoint: pIC50

• CC(=O)NC(C)CCc1ccc(-c2csc(-c3ccc(NC(=O)C4CC4)cc3)n2)cc1 (stereo unspecified) = 6.94

* * *

Tested on: Plasmodium berghei
Experiment: Luciferase/luciferin-expressing antifolate-resistant parasites were used to infect a culture of HepG2 cells that were pre-incubated with compounds. Infected hepatocytes emit light due to the luciferase reaction. Assay results are presented as the percent inhibition of light emission compared to control. […]
Assay type: functional
Settings: sporozoite, read-out: LUCIFERASE INFECTION ASSAY - IC90
reported endpoint: IC90 (µM)

- CN1\C(=C/C=N/N=C/C2=C(N3CCOCC3)C(=C\c3ccc([N+](=O)[O-])cc3)/CC2)C(C)(C)c2ccccc21: 9.46
- O=C(Nc1ccc(Cl)c(Cl)c1)Nc1c(-c2ccccc2)nc2ccccn12: 4.52
- CC(=O)Nc1cccc(/C(C)=N/n2c(-c3cccc([N+](=O)[O-])c3)cs/c2=N\c2c(C)cccc2C)c1: 4.17
- CCN(C(=O)CSc1nc2ccccc2c(=O)n1-c1ccc(C(C)C)cc1)c1cccc2ccccc12: 9.59
- Cc1cc(C)n(-c2nc(-c3ccccc3)cc(N3CCOCC3)n2)n1: 6.26

* * *

Tested on: Plasmodium berghei
Test: Luciferase/luciferin-expressing antifolate-resistant parasites were used to infect a culture of HepG2 cells that were pre-incubated with compounds. Infected hepatocytes emit light due to the luciferase reaction. Assay results are presented as the percent inhibition of light emission compared to control. […]
Type: functional
Conditions: sporozoite, PBLUC_HILL_SLOPE 2.93, PBLUC_R_SQUARED 0.289, read-out: LUCIFERASE INFECTION ASSAY - IC50
reported endpoint: IC50 (nM)

* CC(C)(C)c1ccc(/C=C2\CCc3c2nc2ccccc2c3C(=O)OCC(=O)NNC(=O)c2ccccc2F)cc1 | 2580

* * *

Tested on: Plasmodium berghei
Assay: Luciferase/luciferin-expressing antifolate-resistant parasites were used to infect a culture of HepG2 cells that were pre-incubated with compounds. Infected hepatocytes emit light due to the luciferase reaction. Assay results are presented as the percent inhibition of light emission compared to control. […]
Format: functional
Conditions: sporozoite, PBLUC_HILL_SLOPE 1.96, PBLUC_R_SQUARED 0.352, read-out: LUCIFERASE INFECTION ASSAY - IC50
reported endpoint: IC50 (µM)

• CN1/C(=C\C(=O)CSc2nc(N)c3ccsc3n2)C(C)(C)c2ccccc21 = 8.34

* * *

System: Plasmodium berghei
Assay: Luciferase/luciferin-expressing antifolate-resistant parasites were used to infect a culture of HepG2 cells that were pre-incubated with compounds. Infected hepatocytes emit light due to the luciferase reaction. Assay results are presented as the percent inhibition of light emission compared to control. […]
Type: functional
Details: sporozoite, HEPG2TOX_HILL_SLOPE 7.68, HEPG2TOX_R_SQUARED 0.737, read-out: LUCIFERASE INFECTION ASSAY - IC50
reported endpoint: IC50

- COc1ccccc1-c1cc(-c2cccc(C(F)(F)F)c2)cnc1N: > 9.58 µM

* * *

Tested on: Plasmodium berghei
Assay: Luciferase/luciferin-expressing antifolate-resistant parasites were used to infect a culture of HepG2 cells that were pre-incubated with compounds. Infected hepatocytes emit light due to the luciferase reaction. Assay results are presented as the percent inhibition of light emission compared to control. […]
Type: functional
Details: sporozoite, HEPG2TOX_HILL_SLOPE 1.58, HEPG2TOX_R_SQUARED 0.903, PBLUC_HILL_SLOPE 3.01, PBLUC_R_SQUARED 0.663, read-out: LUCIFERASE INFECTION ASSAY - IC50
reported endpoint: IC50

* CNC(=O)c1cccc(-c2ccc3ncc(-c4cccc(C(F)(F)F)c4)n3n2)c1 | 1.42 µM

* * *

Tested on: Plasmodium berghei
Experiment: Luciferase/luciferin-expressing antifolate-resistant parasites were used to infect a culture of HepG2 cells that were pre-incubated with compounds. Infected hepatocytes emit light due to the luciferase reaction. Assay results are presented as the percent inhibition of light emission compared to control. […]
Assay type: functional
Conditions: sporozoite, HEPG2TOX_HILL_SLOPE 10.4, HEPG2TOX_R_SQUARED 0.0549, PBLUC_HILL_SLOPE 2.88, PBLUC_R_SQUARED 0.623, read-out: LUCIFERASE INFECTION ASSAY - IC50
pIC50: −log10 of the molar value.
reported endpoint: pIC50

• COc1ccc(Nc2nccc3[nH]c(-c4cccc(F)c4)cc23)cc1 = 5.78

* * *

Test system: Plasmodium berghei
Test: Luciferase/luciferin-expressing antifolate-resistant parasites were used to infect a culture of HepG2 cells that were pre-incubated with compounds. Infected hepatocytes emit light due to the luciferase reaction. Assay results are presented as the percent inhibition of light emission compared to control. […]
Type: functional
Conditions: sporozoite, read-out: LUCIFERASE INFECTION ASSAY - IC50
reported endpoint: IC50

- O=C1Nc2ccccc2SC1c1c(-c2ccc(Cl)cc2)cc2ccccn12 (centres undefined): > 10 µM
- CNc1ccccc1C(C)(C)c1cc(-c2ccc(Cl)cc2)no1: 4.84 µM
- c1ccc(C(Nc2ncnc3ccsc23)c2cccs2)cc1 (centres undefined): 1.14 µM
- O=C1c2cccnc2C(=O)N1Cc1ccc2c(c1)OCO2: > 11.7 µM
- N#Cc1cccc(-c2nnco2)c1: > 10 µM
- COc1cc(CNc2ncnc3sc(-c4ccccc4)cc23)ccn1: 8.74 µM
- CCn1c(C)nc2cc(C(=O)NNC(=O)c3cc(=O)[nH]c4ccccc34)ccc21: > 10 µM
- Cn1nc(C(C)(C)C)cc1C(=O)Nc1ccc2nc(-c3cccs3)nn2c1: > 10 µM
- CCCN1CCc2nc(Nc3ccc(OCc4ccccc4)cc3)ncc2C1: > 8.81 µM
- COc1ccc(CCn2c(C)cc(C(=O)COC(=O)c3[nH]nc4ccccc34)c2C)cc1: > 10 µM
- CC(=O)c1ccc(S(=O)(=O)N(Cc2c(F)cccc2Cl)C2CC2)cc1: > 10 µM
- Clc1cc(Cl)cc(NCc2ccc3c(c2)OCO3)c1: > 11.1 µM
- C(=C(c1nc2ccccc2s1)c1nc2ccccc2s1)c1ccccn1: > 10 µM
- Cc1cc(C(=O)CSc2nnc3n2CCCCC3)c(C)n1Cc1ccc2c(c1)OCO2: > 10 µM
- CCOC(=O)c1cc(C#N)c(C)nc1Sc1ccccc1NC(=O)Nc1ccc(SC(F)(F)F)cc1: > 6.2 µM
- Cc1ccc(CC2CC(=O)N(C3CCCCC3)C2=O)cc1 (centres undefined): > 11.6 µM
- CCOC(=O)c1cc(C#N)c(Sc2ccccn2)nc1C(F)(F)F: > 9.34 µM
- CCNC(=O)c1cccc(Nc2nc(C(F)(F)F)nc3ccccc23)c1: > 10 µM
- CC(NC(=O)Cn1c2ccccc2c(=O)c2ccccc21)c1cc2ccccc2o1 (centres undefined): 6.06 µM
- COc1ccccc1CNC(=O)c1cc(Cl)ccc1OC: > 10.8 µM
- Cc1cc(Nc2nc3ccccc3nc2N2CCN(/C=C/c3ccccc3)CC2)n(-c2ccccc2)n1: > 10 µM
- FC(F)(F)/C(=N\C1(C(Cl)(Cl)Cl)Oc2ccccc2O1)NCc1ccco1: > 10 µM
- CCn1c(NC(=O)c2cccnc2Oc2ccccc2)nc2ccccc21: > 10 µM
- Cc1ccccc1COC(=O)C1(NC(=O)NCc2ccccc2)CCCC1: > 10 µM
- CC(=O)c1cnc(N)nc1C: > 21.8 µM
- Cc1nn2c(nc(Sc3nc4ccccc4o3)c3ccccc32)c1/C=N/NC(=O)c1cccc(S(=O)(=O)N2CCOCC2)c1: > 10 µM
- CCc1nn2c(=O)cc(CSc3nnc(-c4cc(C)cc(C)c4)o3)nc2s1: > 10 µM
- Cc1ccc(-c2c(C)sc3[nH]c(CN(C)CC(=O)Nc4cccc(C)c4C)nc(=O)c23)cc1: > 10 µM
- NS(=O)(=O)c1ccc(CCNC(=O)COC(=O)c2ccc3[nH]c4c(c3c2)CCCC4)cc1: > 10 µM
- Fc1ccc(CNCC2(c3ccnc(-c4ccc(Cl)cc4)c3)CC2)cc1F: > 10 µM
- COCCNc1nc(-c2ccc(Cl)cc2)nc2ccccc12: > 10.5 µM
- O=C1NC(=O)N2CSCC12 (centres undefined): > 20.9 µM
- O=C(Nc1cccc(Cl)c1)n1nccc1-c1cc(-c2ccccc2)no1: > 9.05 µM
- Cn1cnnc1C1CCCN(S(C)(=O)=O)C1 (centres undefined): > 10 µM
- Cc1cc2occ(CC(=O)Nc3ccc(N4CCN(C)CC4)nc3)c2cc1C(C)C: 9.57 µM
- N#CCCN(C(=O)COC(=O)c1ccc2c(c1)NC(=O)CS2)c1ccc2c(c1)OCCO2: > 10 µM
- O=C(NNC1c2ccccc2-c2ccccc21)c1ccccc1: 8.58 µM
- COc1ccc(/C=C/c2nc3cc(-c4nc5ccccc5[nH]4)ccc3s2)cc1: 1.84 µM
- C=Cc1c(SC)sc(C(=O)O)c1C: > 15.4 µM
- Cc1sc2nc(CN3CCCC3)nc(Oc3ccc4ccncc4c3)c2c1C: 9.51 µM
- Cn1c[n+](C2=C(NS(=O)(=O)c3ccc([N+](=O)[O-])cc3)C(=O)c3ccccc3C2=O)c2ccccc21: 2.53 µM
- Cc1cc(C)c(NC(=O)c2cc(-c3ccccc3)nn2-c2ccccc2)c(C)c1: > 10 µM
- Cc1cccc(-n2c(SC(C)C(N)=O)nc3ccccc3c2=O)n1 (centres undefined): > 10 µM
- COc1cc(/C=C/C(=O)OC(C(=O)c2c[nH]c3ccccc23)c2ccccc2)cc(OC)c1OC (centres undefined): > 10 µM
